# assay_name: Half life in rat at 30 mg/kg, po
# Type: ADME, organism-based
# Design: dose 30 mg/kg, route oral
# measurement_setup: in vivo
Parameter half-life: see the listing below.
Kindly provide the numeric value in h only, without the unit symbol.

{"line_notation": "O=C(O)CCNCCCc1ccc(OCCCc2ccccc2)cc1", "unit_tag": "h", "half-life": 3.8}

## Task Return reported half-life. Input compound: C/C(=C\CNCCC(=O)O)c1ccc(OCCCc2ccccc2)cc1
## Result 7.4
